These entries and their values trace back to the supplement of paper PMC7156485.

System: TDF
Assay: H1.0 immunofluorescence intensity relative to DMSO (% of DMSO); higher = stronger H1.0 induction, active = 120 or more;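 note: TDF is a line of transformed human dermal fibroblasts of mesenchymal origin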
Settings: concentration: 10 µM; 24 h
Give satisfied when the value for H1.0 immunofluorescence intensity is at least 100. Give not satisfied when it is less.

[[record]]
compound = "O=C(Nc1ncc([N+](=O)[O-])s1)c1ccc([N+](=O)[O-])c(Cl)c1 [3-chloro-4-nitro-N-(5-nitrothiazol-2-yl)benzamide]"
label = "satisfied"

[[record]]
compound = "CC(C)(O)c1ccccc1CCC(SCC1(CC(=O)O)CC1)c1cccc(C=Cc2ccc3ccc(Cl)cc3n2)c1 (configuration not stated)"
label = "not satisfied"

[[record]]
compound = "CCOC(=O)C1=CC2(CC)CCCN3CCc4c(n1c1ccccc41)C32 (configuration not stated)"
label = "not satisfied"

[[record]]
compound = "CC(COc1ccc(C=Cc2ccccc2)cc1)[N+](C)(C)C.[I-] (configuration not stated)"
label = "satisfied"

[[record]]
compound = "c1cc(-c2cnn3cc(-c4ccc(OCCN5CCCCC5)cc4)cnc23)ccn1"
label = "not satisfied"

[[record]]
compound = "Nc1nc(N)c2nc(CNc3ccc(C(=O)NC(CCC(=O)O)C(=O)O)cc3)cnc2n1 (configuration not stated)"
label = "not satisfied"

[[record]]
compound = "Cl.O=c1cc(N2CCOCC2)oc2c(-c3ccccc3)cccc12"
label = "not satisfied"

[[record]]
compound = "O=C(c1ccc(Cl)c(S(=O)(=O)NCC2CCCO2)c1)N1CCN(c2ncccn2)CC1 (configuration not stated)"
label = "not satisfied"

[[record]]
compound = "CN1CCc2ccccc2Cc2[nH]c3ccccc3c2CC1"
label = "not satisfied"

[[record]]
compound = "O=C(OC12CC3CC(CC(C3)C1)C2)c1ccc(NCc2cc(O)ccc2O)cc1 [1-adamantyl 4-[(2,5-dihydroxybenzyl)amino]benzoate]"
label = "satisfied"

[[record]]
compound = "Br.CN1CCc2c(cc(O)c(O)c2Cl)C(c2cccc(Cl)c2)C1 (configuration not stated)"
label = "not satisfied"

[[record]]
compound = "COc1ccc2cc1Oc1ccc(cc1)CC1c3cc(c(OC)cc3CCN1C)Oc1c(OC)c(OC)c(OC)c3c1C(C2)N(C)CC3 (configuration not stated)"
label = "satisfied"

[[record]]
compound = "O=c1cc(N2CCOCC2)oc2c1ccc1ccccc12 [NU 7026 - 2-(4-Morpholinyl)-4H-naphthol[1,2-b]pyran-4-one]"
label = "not satisfied"

[[record]]
compound = "C=C(C)C1CC=C(C(=O)O)CC1 (single isomer, unassigned; (-)) [(-)-Perillic acid]"
label = "not satisfied"

[[record]]
compound = "NC(=S)NN=Cc1ncccc1N"
label = "satisfied"

[[record]]
compound = "Cl.c1ccc(-n2c(C3=NCCN3)cc3ccccc32)cc1"
label = "satisfied"


----------
Tested on: HCC1569
Experiment: H1.0 immunofluorescence intensity relative to DMSO (% of DMSO); higher = stronger H1.0 induction, active = 140 or more
Conditions: concentration: 10 µM; 24 h
MEASURED_ENDPOINT: H1.0 immunofluorescence intensity

[[record]]
molecule = "Cn1c(=O)c(-c2c(Cl)cccc2Cl)cc2cnc(Nc3cccc(C(=O)O)c3)nc21"
system_under_test = "HCC1569"
readout_number = 156

[[record]]
molecule = "COc1ccc(CN(CCN(C)C)c2ccccn2)cc1.O=C(O)C=CC(=O)O [Mepyramine maleate]"
system_under_test = "HCC1569"
readout_number = 100

[[record]]
molecule = "CC(C)c1cccc(O)c(=O)c1"
system_under_test = "HCC1569"
readout_number = 94.8

[[record]]
molecule = "CC12CCC(=O)C=C1CCC1C2C(O)CC2(C)C1CCC2(O)C(=O)CO (stereo not drawn) [Hydrocortisone]"
system_under_test = "HCC1569"
readout_number = 105

[[record]]
molecule = "CN(C)CC(C)(C)CNc1nn2c(-c3ccccc3)nnc2cc1C1CCC1"
system_under_test = "HCC1569"
readout_number = 92.2

[[record]]
molecule = "OC1CCN2Cc3ccccc3N=C12 (stereo not drawn)"
system_under_test = "HCC1569"
readout_number = 89.7

[[record]]
molecule = "CCn1cc(C(=O)O)c(=O)c2cc(F)c(N3CCNC(C)C3)c(F)c21.Cl (stereo not drawn) [Lomefloxacin hydrochloride]"
system_under_test = "HCC1569"
readout_number = 92.9

[[record]]
molecule = "COC1C=COC2(C)Oc3c(C)c(O)c4c(O)c(cc([O-])c4c3C2=O)NC(=O)C(C)=CC=CC(C)C(O)C(C)C(O)C(C)C(OC(C)=O)C1C.[Na+] (stereo not drawn)"
system_under_test = "HCC1569"
readout_number = 97.5


----------
System: HCC1569
Assay: H1.0 immunofluorescence intensity relative to DMSO (% of DMSO); higher = stronger H1.0 induction, active = 140 or more
Conditions: concentration: 10 µM; 24 h
# cutoff 100 applies to H1.0 immunofluorescence intensity; >= gives Fulfilled, < gives Not fulfilled

[[record]]
compound = "CCOC([O-])=Nc1c[n+](N2CCOCC2)no1"
label = "Not fulfilled"

[[record]]
compound = "O=C([O-])c1cc2cc(Cc3cccnc3)ccc2o1.[Na+] [Furegrelate sodium]"
label = "Not fulfilled"

[[record]]
compound = "O=C(Nc1cccc(C(F)(F)F)c1)Nc1cc(S(=O)(=O)NC2CC2)ccc1-c1ccsc1"
label = "Fulfilled"

[[record]]
compound = "Cc1cccc(C#Cc2ccccc2)n1.Cl [6-Methyl-2-(phenylethynyl)pyridine hydrochloride]"
label = "Not fulfilled"

[[record]]
compound = "CSc1ccc2c(c1)N(CCC1CCCCN1C)c1ccccc1S2 (stereo not drawn)"
label = "Fulfilled"


----------
Tested on: TDF
Assay: H1.0 immunofluorescence intensity relative to DMSO (% of DMSO); higher = stronger H1.0 induction, active = 120 or more
Conditions: concentration: 10 µM; 24 h
MEASURED_ENDPOINT: H1.0 immunofluorescence intensity

[[record]]
molecule = "Clc1ccc(COC(Cn2ccnc2)c2ccc(Cl)cc2Cl)c(Cl)c1 (stereo not drawn) [Miconazole]"
measured_endpoint = "H1.0 immunofluorescence intensity"
readout_number = 101

[[record]]
molecule = "Cl.c1ccc2c(CC3=NCCN3)cccc2c1 [Naphazoline hydrochloride]"
measured_endpoint = "H1.0 immunofluorescence intensity"
readout_number = 91.2

[[record]]
molecule = "COc1ccc(C2(C#N)CCC(C(=O)O)CC2)cc1OC1CCCC1 (stereo not drawn)"
measured_endpoint = "H1.0 immunofluorescence intensity"
readout_number = 98.8

[[record]]
molecule = "CCCCCCCCCCCCCCCC(O)C(N)CO (racemic) [DL-erythro-Dihydrosphingosine]"
measured_endpoint = "H1.0 immunofluorescence intensity"
readout_number = 108

[[record]]
molecule = "CN1CCc2cc(Cl)c(O)cc2C(c2ccccc2)C1.Cl (stereo not drawn)"
measured_endpoint = "H1.0 immunofluorescence intensity"
readout_number = 88.5

[[record]]
molecule = "CC1CNCCN1S(=O)(=O)c1cccc2cnccc12.Cl.Cl (stereo not drawn) [H-7 dihydrochloride]"
measured_endpoint = "H1.0 immunofluorescence intensity"
readout_number = 107

[[record]]
molecule = "CC(C)n1cnc2c(NCc3ccccc3)nc(NCCO)nc21 [N9-Isopropylolomoucine]"
measured_endpoint = "H1.0 immunofluorescence intensity"
readout_number = 95

[[record]]
molecule = "CN(C)CCCn1cc(C2=C(c3c[nH]c4ccccc34)C(=O)NC2=O)c2ccccc21 [Bisindolylmaleimide I]"
measured_endpoint = "H1.0 immunofluorescence intensity"
readout_number = 111

[[record]]
molecule = "COc1cc(C2c3cc4c(cc3C(OC3OC5COC(C)OC5C(O)C3O)C3COC(=O)C23)OCO4)cc(OC)c1O (stereo not drawn) [Etoposide]"
measured_endpoint = "H1.0 immunofluorescence intensity"
readout_number = 125

[[record]]
molecule = "CCCCCC(O)C=CC=CCC=CCCCCC(=O)O (stereo not drawn)"
measured_endpoint = "H1.0 immunofluorescence intensity"
readout_number = 97.2

[[record]]
molecule = "Oc1cc(O)cc(C=Cc2ccc(O)c(O)c2)c1 [Piceatannol]"
measured_endpoint = "H1.0 immunofluorescence intensity"
readout_number = 97.2

[[record]]
molecule = "CC(C)NCC(O)COc1cccc2ccccc12.Cl (racemic)"
measured_endpoint = "H1.0 immunofluorescence intensity"
readout_number = 98.8

[[record]]
molecule = "CCOc1ccc2c(c1)C(C)=CC(C)(C)N2 [Ethoxyquin]"
measured_endpoint = "H1.0 immunofluorescence intensity"
readout_number = 96.1

[[record]]
molecule = "CN(C)CCC(c1ccc(Br)cc1)c1ccccn1.O=C(O)C=CC(=O)O (racemic)"
measured_endpoint = "H1.0 immunofluorescence intensity"
readout_number = 97.9

[[record]]
molecule = "COc1cc2ncnc(Nc3ccc(Cl)cc3Cl)c2cc1OC [Ste11 MAPKKK Activation Inhibitor]"
measured_endpoint = "H1.0 immunofluorescence intensity"
readout_number = 89.8

[[record]]
molecule = "COc1cc(C2Oc3cc(C4Oc5cc(O)cc(O)c5C(=O)C4O)ccc3OC2CO)ccc1O (stereo not drawn) [Silymarin]"
measured_endpoint = "H1.0 immunofluorescence intensity"
readout_number = 95.5

[[record]]
molecule = "CCN(CC)CCOCCOC(=O)C1(c2ccccc2)CCCC1.O=C(O)CC(O)(CC(=O)O)C(=O)O [Carbetapentane citrate]"
measured_endpoint = "H1.0 immunofluorescence intensity"
readout_number = 107

[[record]]
molecule = "O=C(O)c1cc(=O)cc(C(=O)O)[nH]1 [Chelidamic acid]"
measured_endpoint = "H1.0 immunofluorescence intensity"
readout_number = 90

